Taken from BindingDB's records for doi:10.1016/j.bmcl.2006.06.087.

Molecular target: Fatty-acid amide hydrolase 1 [30-579] (Rattus norvegicus)
Sequence (P97612 whole entry): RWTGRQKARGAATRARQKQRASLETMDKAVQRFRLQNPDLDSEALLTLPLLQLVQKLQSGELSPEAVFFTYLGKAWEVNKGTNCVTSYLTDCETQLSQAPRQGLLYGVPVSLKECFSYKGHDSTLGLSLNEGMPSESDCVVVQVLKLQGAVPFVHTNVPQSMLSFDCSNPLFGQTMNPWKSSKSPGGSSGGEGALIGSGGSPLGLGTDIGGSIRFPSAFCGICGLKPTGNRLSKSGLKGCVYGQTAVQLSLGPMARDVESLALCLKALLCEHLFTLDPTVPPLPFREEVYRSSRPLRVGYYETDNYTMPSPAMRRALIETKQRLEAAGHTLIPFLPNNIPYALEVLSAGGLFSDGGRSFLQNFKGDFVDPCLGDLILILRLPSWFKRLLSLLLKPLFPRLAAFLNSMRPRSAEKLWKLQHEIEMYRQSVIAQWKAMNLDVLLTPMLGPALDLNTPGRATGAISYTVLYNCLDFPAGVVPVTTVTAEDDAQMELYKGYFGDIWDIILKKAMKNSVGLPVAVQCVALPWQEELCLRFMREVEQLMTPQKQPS
readout label: IC50 (µM)

Some solved entries appear below for comparison.
CCCCCCCCN1C(=O)C(c2ccccc2)(c2ccccc2)NC1=S: 3.02
C#CCCCCCCCCCNC(=O)Oc1cccc(-c2cccc(C(N)=O)c2)c1: 0.01

a: CCCCCCN1C(=O)C(c2ccccc2)(c2ccccc2)NC1=S
b: CCCCCCN1C(=O)NC(c2ccccc2)(c2ccccc2)C1=O
Kindly compare a with b and tell me which has the lower IC50 figure. Return value: the label identifying the chosen record. a
(a: 4.47 µM, b: 9.55 µM)
